Test: folding enthalpy; higher = less favourable; fluorescence melt of hairpins on a sequencing array, two-state fit
Conditions: sodium 0.088 M
Measurement Name: folding enthalpy
Show the value, then the unit it is measured in.

Known folding enthalpy results, listed for orientation:
{"Sequence Input": "CGGTGCGGAAACGCCCG (((.(((....))))))", "folding enthalpy": "-30.8 kcal/mol"}
{"Sequence Input": "GCGCCCGAAAGGGCCCGC ((((((....)))..)))", "folding enthalpy": "-9.91 kcal/mol"}
{"Sequence Input": "GCTTGTGGAAACACGAGC (((.(((....))).)))", "folding enthalpy": "-37.8 kcal/mol"}
{"Sequence Input": "GCTCGGCGAAAGCCGCGC ((.((((....)))).))", "folding enthalpy": "-18.5 kcal/mol"}
{"Sequence Input": "GATCACGTGTGTGATC ((((((....))))))", "folding enthalpy": "-37.3 kcal/mol"}
{"Sequence Input": "GCTCCACCGAAAGGTAGC (((..(((....))))))", "folding enthalpy": "-17.2 kcal/mol"}
{"Sequence Input": "GATGAGGGAAACCCCATC ((((.((....)).))))", "folding enthalpy": "-31.4 kcal/mol"}
{"Sequence Input": "GATCCTTATTAGGATC ((((((....))))))", "folding enthalpy": "-37.8 kcal/mol"}
{"Sequence Input": "GATCGAAAGGTCGATC ((((((....))))))", "folding enthalpy": "-28.7 kcal/mol"}
{"Sequence Input": "GAAACTGGAAACAGCTTC (((.(((....))).)))", "folding enthalpy": "-31.1 kcal/mol"}

folding enthalpy for GATACCGAAAGGTCAATC ((((((....)))..))) is -8.3 kcal/mol

folding enthalpy for GCAGGTGGAAACGTCTGC ((((..(....)..)))) is -25.7 kcal/mol

* * *

Test: melting temperature; fluorescence melt of hairpins on a sequencing array, two-state fit, raised by 9.35 °C to match UV melts
Conditions: sodium 0.088 M
Measurement Name: Tm (°C)
Write down the numeric answer in °C and omit the unit.

Known Tm results, listed for orientation:
{"Sequence Input": "GCAAACGAAAGTTTTGC ((((((....))).)))", "Units Label": "°C", "Tm": 49.4}
{"Sequence Input": "GCCTCTCGAAAGAGTGGC (((.(((....))).)))", "Units Label": "°C", "Tm": 57.4}
{"Sequence Input": "GCAGAGCGAAAGCTATGC (((.(((....))).)))", "Units Label": "°C", "Tm": 59.7}
{"Sequence Input": "GCAATCGAAAGATAATGC ((((((....)))..)))", "Units Label": "°C", "Tm": 27.8}
{"Sequence Input": "GGTTAGTCGAAAGACACC (((..(((....))))))", "Units Label": "°C", "Tm": 35.5}
{"Sequence Input": "GATGAGGGAAACTTCATC (((((.(....).)))))", "Units Label": "°C", "Tm": 37.1}

// switching to the query sequence
Tm for GTAGACCGAAAGGTTTAC (((.(((....))).))) is 48.5

* * *

Test: folding enthalpy; higher = less favourable; fluorescence melt of hairpins on a sequencing array, two-state fit
Conditions: sodium 0.088 M
Measurement Name: folding enthalpy (kcal/mol)
Write down the numeric answer in kcal/mol and omit the unit.

folding enthalpy for GGTCGCGGAAACGTGGCC ((.(.((....)).).)) is -48.9

folding enthalpy for GTCGTTGAAAAACGAC ((((((....)))))) is -35.2

folding enthalpy for GATCGTTAAGACGATC ((((((....)))))) is -43.2

folding enthalpy for AGCTCGAAAGAGCT (((((....))))) is -20.8

folding enthalpy for GTGGTACGAAAGTATCAC (((.(((....))).))) is -47.3

folding enthalpy for GATCCAGTCCTGGATC ((((((....)))))) is -44.6
